Where do these numbers come from? They come from ChEMBL document CHEMBL1145029.

Reported pKi, Matrix metalloproteinase-9 (Homo sapiens, UniProt P14780).
When answering, recall that pKi equals minus log10 of the concentration in mol/L, and write that number alone.

Take a look at these entries with their results.
# smiles entry, pKi
measured = [
    ("COc1cc(COc2ccc3c(c2)NCCN([C@H](CCCCNC(=O)OC(C)(C)C)C(=O)NO)S3(=O)=O)cc(OC)c1", 6.93),
    ("C[C@H](C(=O)NO)N1CCNc2cc(OCc3ccccc3)ccc2S1(=O)=O", 8.44),
    ("C[C@H](C(=O)NO)N1CCNc2cc(Oc3ccc(C(F)(F)F)cc3)ccc2S1(=O)=O", 8.15),
    ("CC(C)C[C@H](C(=O)NO)N1CCNc2cc(O)ccc2S1(=O)=O", 7.10),
    ("C[C@H](C(=O)NO)N1CCNc2cc(O)ccc2S1(=O)=O", 7.00),
]

We next turn to a different compound, shown below.
Form field - read-out: pKi; system: Matrix metalloproteinase-9 (Homo sapiens, UniProt P14780); submitted item: Cc1cc(C)cc(C(=O)Nc2ccc3c(c2)NCCN([C@H](C)C(=O)NO)S3(=O)=O)c1
Sequence (P14780 whole entry): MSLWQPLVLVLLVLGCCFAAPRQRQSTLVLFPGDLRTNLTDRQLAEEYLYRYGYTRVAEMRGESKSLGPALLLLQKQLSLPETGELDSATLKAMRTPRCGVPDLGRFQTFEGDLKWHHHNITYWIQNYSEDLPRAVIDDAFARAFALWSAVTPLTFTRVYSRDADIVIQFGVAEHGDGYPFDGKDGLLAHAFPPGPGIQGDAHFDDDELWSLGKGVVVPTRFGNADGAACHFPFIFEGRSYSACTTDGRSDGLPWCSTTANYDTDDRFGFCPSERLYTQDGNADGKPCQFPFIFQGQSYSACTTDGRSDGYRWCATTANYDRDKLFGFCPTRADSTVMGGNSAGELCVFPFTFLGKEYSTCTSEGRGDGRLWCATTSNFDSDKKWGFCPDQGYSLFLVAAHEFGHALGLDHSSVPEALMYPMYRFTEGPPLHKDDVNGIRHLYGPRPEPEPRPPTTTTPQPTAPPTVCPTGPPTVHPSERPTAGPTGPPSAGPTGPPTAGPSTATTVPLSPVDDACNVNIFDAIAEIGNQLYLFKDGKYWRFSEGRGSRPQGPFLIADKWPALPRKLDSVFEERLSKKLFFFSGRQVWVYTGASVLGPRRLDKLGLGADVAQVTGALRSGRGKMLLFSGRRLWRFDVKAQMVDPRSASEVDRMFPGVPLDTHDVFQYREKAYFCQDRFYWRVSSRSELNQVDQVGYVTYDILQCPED
6.00

----------
- target: Disintegrin and metalloproteinase domain-containing protein 17 (Homo sapiens)
- Sequence (P78536 whole entry, the tested form may be a part): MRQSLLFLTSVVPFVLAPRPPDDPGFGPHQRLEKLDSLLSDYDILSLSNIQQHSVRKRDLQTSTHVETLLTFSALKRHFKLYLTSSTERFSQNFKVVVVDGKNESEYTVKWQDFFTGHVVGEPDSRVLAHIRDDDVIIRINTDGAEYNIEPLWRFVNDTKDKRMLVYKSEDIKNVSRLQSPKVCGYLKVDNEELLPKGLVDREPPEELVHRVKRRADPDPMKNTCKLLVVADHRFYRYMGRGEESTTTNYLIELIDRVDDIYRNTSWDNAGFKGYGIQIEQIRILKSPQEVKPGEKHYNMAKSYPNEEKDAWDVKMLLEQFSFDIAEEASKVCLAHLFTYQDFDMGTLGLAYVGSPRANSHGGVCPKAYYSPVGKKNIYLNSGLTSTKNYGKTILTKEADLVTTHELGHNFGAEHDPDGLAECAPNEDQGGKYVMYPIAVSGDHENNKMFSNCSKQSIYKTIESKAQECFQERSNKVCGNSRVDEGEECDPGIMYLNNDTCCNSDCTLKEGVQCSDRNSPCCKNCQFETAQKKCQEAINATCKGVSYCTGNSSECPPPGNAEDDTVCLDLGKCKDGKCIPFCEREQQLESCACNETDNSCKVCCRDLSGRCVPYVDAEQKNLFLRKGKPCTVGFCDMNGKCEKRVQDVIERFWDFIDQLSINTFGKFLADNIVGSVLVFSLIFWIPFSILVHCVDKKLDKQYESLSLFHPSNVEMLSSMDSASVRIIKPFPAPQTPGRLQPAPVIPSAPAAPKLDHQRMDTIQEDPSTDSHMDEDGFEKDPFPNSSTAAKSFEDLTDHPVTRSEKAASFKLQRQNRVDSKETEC
- experiment summary: Ability to suppress the formation of TNF-aplha in human whole blood assay (WBA)
- Format: functional, tissue-based
Below, each entry is listed with its recorded pIC50.
Lab note — pIC50 values are minus log10 of concentrations in M.

Below, 4 compounds whose answers are already recorded.
# smiles entry, target, pIC50
records = [
    ("C[C@H](C(=O)NO)N1CCNc2cc(Oc3cccc([N+](=O)[O-])c3)ccc2S1(=O)=O", "Disintegrin and metalloproteinase domain-containing protein 17 (Homo sapiens)", 5.85),
    ("COc1cc(COc2ccc3c(c2)NCCN([C@H](CCCCNS(C)(=O)=O)C(=O)NO)S3(=O)=O)cc(OC)c1", "Disintegrin and metalloproteinase domain-containing protein 17 (Homo sapiens)", 4.42),
    ("CCOc1cc(COc2ccc3c(c2)NCCN([C@H](CCCC(=O)OC)C(=O)NO)S3(=O)=O)cc(OCC)c1", "Disintegrin and metalloproteinase domain-containing protein 17 (Homo sapiens)", 4.62),
    ("C[C@H](C(=O)NO)N1CCNc2cc(Oc3ccc([N+](=O)[O-])cc3)ccc2S1(=O)=O", "Disintegrin and metalloproteinase domain-containing protein 17 (Homo sapiens)", 4.82),
]

Okay, now this compound:
# pIC50 lookup, item COc1cc(COc2ccc3c(c2)NCCN([C@H](C)C(=O)NO)S3(=O)=O)cc(OC)c1
4.55

----------
- target: Disintegrin and metalloproteinase domain-containing protein 17 (Homo sapiens)
- experiment summary: Ability to suppress the formation of TNF-aplha in human peripheral blood mononuclear cell assay(PBMC)
- Type: functional
readout type: pIC50
Friendly reminder that pIC50 comes from taking -log10 of the concentration in mol/L.

Examples with their reported pIC50 follow.
# smiles entry, pIC50
rows = [
    ("COc1cc(COc2ccc3c(c2)NCCN([C@H](C)C(=O)NO)S3(=O)=O)cc(OC)c1", 6.11),
    ("C[C@H](C(=O)NO)N1CCNc2cc(Oc3ccc(C(F)(F)F)cc3)ccc2S1(=O)=O", 6.08),
    ("CC(C)C[C@H](C(=O)NO)N1CCNc2cc(O)ccc2S1(=O)=O", 5.02),
    ("CCOc1cc(COc2ccc3c(c2)NCCN([C@@H](C(=O)NO)C(C)C)S3(=O)=O)cc(OCC)c1", 5.09),
]

Now, please, on to the next compound.
What value of measured pIC50 is listed for C[C@H](C(=O)NO)N1CCNc2cc(OCc3cc(Cl)cc(Cl)c3)ccc2S1(=O)=O ?
6.03

----------
- target: Disintegrin and metalloproteinase domain-containing protein 17 (Homo sapiens)
- experiment summary: Ability to suppress the formation of TNF-aplha in human peripheral blood mononuclear cell assay(PBMC)
- Type: functional
Please assign Criterion not met whenever IC50 is at or above 4 µM, and Criterion met whenever it is below.

As a guide, the following entries are already answered.
# smiles entry, category
measured = [
    ("COC(=O)CC[C@H](C(=O)NO)N1CCNc2cc(OCc3cc(OC)cc(OC)c3)ccc2S1(=O)=O", "Criterion not met"),
    ("C[C@H](C(=O)NO)N1CCNc2cc(Oc3cccc([N+](=O)[O-])c3)ccc2S1(=O)=O", "Criterion met"),
    ("Cc1nc(COc2ccc3c(c2)NCCN([C@@H](C(=O)NO)C(C)C)S3(=O)=O)sc1C", "Criterion not met"),
    ("CC(C)C[C@H](C(=O)NO)N1CCNc2cc(OCc3ccccc3)ccc2S1(=O)=O", "Criterion met"),
    ("COc1cc(COc2ccc3c(c2)NCCN([C@H](CC(C)C)C(=O)NO)S3(=O)=O)cc(OC)c1", "Criterion not met"),
]

Determine whether this compound shows IC50 lower than 4 µM (ties excluded): C[C@H](C(=O)NO)N1CCNc2cc(Oc3ccc([N+](=O)[O-])cc3)ccc2S1(=O)=O
Criterion met

What about this compound? CCOc1cc(COc2ccc3c(c2)NCCN([C@H](C)C(=O)NO)S3(=O)=O)cc(OCC)c1
Criterion not met

Request: CCOc1cc(COc2ccc3c(c2)NCCN([C@H](CCCC(=O)OC)C(=O)NO)S3(=O)=O)cc(OCC)c1
Criterion met

Record: CCOc1cc(COc2ccc3c(c2)NCCN([C@H](CCC(=O)OC)C(=O)NO)S3(=O)=O)cc(OCC)c1
Criterion not met

----------
- target: Interstitial collagenase (Homo sapiens, UniProt P03956)
- Sequence (P03956 whole entry): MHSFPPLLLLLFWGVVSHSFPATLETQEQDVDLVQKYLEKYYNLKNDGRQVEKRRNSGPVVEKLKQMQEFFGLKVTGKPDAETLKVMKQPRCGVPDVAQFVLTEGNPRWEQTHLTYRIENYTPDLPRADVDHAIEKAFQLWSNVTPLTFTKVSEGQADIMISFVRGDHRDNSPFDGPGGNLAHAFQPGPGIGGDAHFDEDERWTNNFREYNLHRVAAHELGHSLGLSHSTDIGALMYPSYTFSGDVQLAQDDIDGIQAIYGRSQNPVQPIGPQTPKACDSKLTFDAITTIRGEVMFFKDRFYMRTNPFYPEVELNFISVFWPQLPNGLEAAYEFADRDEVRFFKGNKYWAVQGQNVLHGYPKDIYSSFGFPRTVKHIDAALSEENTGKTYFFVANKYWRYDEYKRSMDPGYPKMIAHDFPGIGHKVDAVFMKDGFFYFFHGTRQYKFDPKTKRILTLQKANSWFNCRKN
readout type: Ki

Reference set (3 entries):
# smiles entry, Ki
measured = [
    ("CCOc1cc(COc2ccc3c(c2)NCCN([C@@H](C(=O)NO)C(C)C)S3(=O)=O)cc(OCC)c1", "> 4.95 µM"),
    ("C[C@H](C(=O)NO)N1CCNc2cc(O)ccc2S1(=O)=O", "0.98 µM"),
    ("Cc1nc(COc2ccc3c(c2)NCCN([C@@H](C(=O)NO)C(C)C)S3(=O)=O)sc1C", "> 4.95 µM"),
]

Write down the reported Ki of O=C(CN1CCNc2ccccc2S1(=O)=O)NO , test system: Interstitial collagenase (Homo sapiens, UniProt P03956).
> 4.95 µM

Then this compound: COc1cc(COc2ccc3c(c2)NCCN([C@@H](C(=O)NO)C(C)C)S3(=O)=O)cc(OC)c1
> 4.95 µM

Further, for Cc1cc(COc2ccc3c(c2)NCCN([C@H](C)C(=O)NO)S3(=O)=O)cc(C)n1 ?
> 4.95 µM

Same question, C[C@H](C(=O)NO)N1CCNc2ccccc2S1(=O)=O this time
> 4.95 µM

Then what about the compound CC(C)C[C@H](C(=O)NO)N1CCNc2cc(OCc3ccccc3)ccc2S1(=O)=O ?
0.548 µM

Query COc1cc(COc2ccc3c(c2)NCCN([C@H](CCCCNC(=O)OC(C)(C)C)C(=O)NO)S3(=O)=O)cc(OC)c1 next
> 4.95 µM

And the next one, COc1cc(COc2ccc3c(c2)NCCN([C@H](CCCCNS(C)(=O)=O)C(=O)NO)S3(=O)=O)cc(OC)c1 ?
> 4.95 µM

----------
// values below are pKi; system is 72 kDa type IV collagenase (Homo sapiens)
Sequence (P08253 whole entry): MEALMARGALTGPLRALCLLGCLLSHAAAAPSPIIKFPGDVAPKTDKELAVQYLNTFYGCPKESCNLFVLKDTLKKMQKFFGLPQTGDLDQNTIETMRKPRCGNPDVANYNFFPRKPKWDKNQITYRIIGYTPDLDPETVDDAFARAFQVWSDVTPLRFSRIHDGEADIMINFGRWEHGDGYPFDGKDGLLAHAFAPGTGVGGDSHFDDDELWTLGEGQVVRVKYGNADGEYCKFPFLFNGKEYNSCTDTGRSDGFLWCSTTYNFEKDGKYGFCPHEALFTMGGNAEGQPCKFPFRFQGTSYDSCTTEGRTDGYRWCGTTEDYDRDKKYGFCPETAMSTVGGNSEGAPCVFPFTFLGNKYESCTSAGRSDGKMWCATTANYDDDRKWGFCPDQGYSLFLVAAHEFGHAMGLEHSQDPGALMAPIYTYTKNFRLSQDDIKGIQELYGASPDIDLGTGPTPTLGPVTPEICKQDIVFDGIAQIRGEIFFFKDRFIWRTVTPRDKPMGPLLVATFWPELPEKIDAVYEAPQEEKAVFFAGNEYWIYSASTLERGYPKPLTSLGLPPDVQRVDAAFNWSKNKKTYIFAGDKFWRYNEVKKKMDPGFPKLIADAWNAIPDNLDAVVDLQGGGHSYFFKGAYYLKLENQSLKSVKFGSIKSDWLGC
# pKi is unitless: minus log10 of the molar concentration; print number only

# smiles entry, pKi
data = [
    ("CCOc1cc(COc2ccc3c(c2)NCCN([C@@H](C(=O)NO)C(C)C)S3(=O)=O)cc(OCC)c1", 5.52),
]

Reported pKi, molecule C[C@H](C(=O)NO)N1CCNc2cc(Oc3ccc([N+](=O)[O-])cc3)ccc2S1(=O)=O : ____
8.10

Try COC(=O)CC[C@H](C(=O)NO)N1CCNc2cc(OCc3cc(OC)cc(OC)c3)ccc2S1(=O)=O next.
5.80

Next molecule: COc1ccc2c(c1)NCCN([C@@H](C(=O)NO)C(C)C)S2(=O)=O
7.28

Again, but for COc1cc(COc2ccc3c(c2)NCCN([C@H](CCCCNS(C)(=O)=O)C(=O)NO)S3(=O)=O)cc(OC)c1
6.41

Proceed to COc1cc(COc2ccc3c(c2)NCCN([C@H](CC(C)C)C(=O)NO)S3(=O)=O)cc(OC)c1
6.81

Same lookup for COc1cc(COc2ccc3c(c2)NCCN([C@H](CCCCNC(=O)OC(C)(C)C)C(=O)NO)S3(=O)=O)cc(OC)c1 , please.
7.49

Similarly, C[C@H](C(=O)NO)N1CCNc2ccccc2S1(=O)=O ?
7.12
